target of assay: vanilloid receptor (Rattus norvegicus, UniProt O35433)
Construct: DRG nerve cells from the primary culture of 2 days were equilibrated; endogenous in cells; host or cells: primary culture of dorsal root ganglion neurons from neonatal SD rats
Sequence (O35433 whole entry): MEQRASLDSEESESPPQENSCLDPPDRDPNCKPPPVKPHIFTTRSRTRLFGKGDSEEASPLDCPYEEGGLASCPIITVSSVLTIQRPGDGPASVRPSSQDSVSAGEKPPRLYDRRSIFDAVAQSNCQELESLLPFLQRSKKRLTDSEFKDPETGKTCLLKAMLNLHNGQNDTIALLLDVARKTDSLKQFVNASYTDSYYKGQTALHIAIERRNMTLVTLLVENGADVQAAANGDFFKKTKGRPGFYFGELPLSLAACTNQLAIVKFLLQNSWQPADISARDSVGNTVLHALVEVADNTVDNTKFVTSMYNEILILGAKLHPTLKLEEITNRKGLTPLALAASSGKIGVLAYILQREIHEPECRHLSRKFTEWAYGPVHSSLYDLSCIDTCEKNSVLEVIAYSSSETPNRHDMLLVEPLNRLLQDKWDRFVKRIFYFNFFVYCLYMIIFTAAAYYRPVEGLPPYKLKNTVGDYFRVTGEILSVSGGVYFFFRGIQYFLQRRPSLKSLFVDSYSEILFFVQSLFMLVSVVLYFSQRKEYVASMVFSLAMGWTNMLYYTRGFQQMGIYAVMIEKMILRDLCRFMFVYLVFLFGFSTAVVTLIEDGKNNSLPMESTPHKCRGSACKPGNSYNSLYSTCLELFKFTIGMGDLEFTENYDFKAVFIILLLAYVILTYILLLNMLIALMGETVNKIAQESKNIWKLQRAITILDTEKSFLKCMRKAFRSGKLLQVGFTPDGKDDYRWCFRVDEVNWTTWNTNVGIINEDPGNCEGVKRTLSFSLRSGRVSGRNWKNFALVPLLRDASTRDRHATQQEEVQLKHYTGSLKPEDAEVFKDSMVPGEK
assay explanation: 45Ca influx test in cultured neonatal rat DRG neurons, inhibition of capsaicin response
Format: cell-based
stated conditions: neonatal rat DRG neurons, capsaicin 0.5 μM, 45Ca influx; read-out: Antagonist Calcium Uptake Test (IC50)
For each of the molecules below, state its pIC50.
Give bare numbers, as −log10 of the molar value.

molecule | observed
CCCSc1nc(C(F)(F)F)ccc1/C=C/C(=O)NCc1ccc(NS(C)(=O)=O)c(C)c1 | 6.29

Could you tell me pIC50 for each of these molecules? They are listed below.
1. C#Cc1cc(CNC(=O)/C=C/c2cc(Cl)c(C(F)(F)F)nc2CCCC)cc(F)c1NS(C)(=O)=O
2. CCC/C(=C\C(=O)N[C@H](C)c1cc(F)c(NS(C)(=O)=O)c(F)c1)c1ccc(C(F)(F)F)nc1CCC
3. C#Cc1cc(CNC(=O)/C=C/c2ccc(C(F)(F)F)nc2N2CCC[C@H]2CO)cc(F)c1NS(C)(=O)=O (stereo in doubt)

6.70
6.80
5.68
